biological target: HCV E1E2 antigen, isolate UKN5.15.7 (hepatitis C virus, isolate UKN5.15.7); experiment: ELISA, Fab on E1E2 antigen
Please provide measured OD 450 nm for the entries that follow.
Give bare numbers, in OD 450 nm.

These recorded examples may help you get a feel for the data.
// fetch OD 450 nm given entry Fab P1 (Fab, V domains shown) VH: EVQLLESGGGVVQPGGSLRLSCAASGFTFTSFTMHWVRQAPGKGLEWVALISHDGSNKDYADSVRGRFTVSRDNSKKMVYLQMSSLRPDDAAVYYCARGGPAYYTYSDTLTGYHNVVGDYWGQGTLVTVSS VL: ELTQSPGTLSLSPGERATLSCRASQVRGFLAWFQQKPGQAPRLLIYGASNRAPGIPDRFSGSGSGTDFTLTISRLEPEDFAVYYCQQYGDSPPITFGQGTRLEIKR
0.17

// fetch OD 450 nm given entry Fab P1a (Fab, V domains shown) VH: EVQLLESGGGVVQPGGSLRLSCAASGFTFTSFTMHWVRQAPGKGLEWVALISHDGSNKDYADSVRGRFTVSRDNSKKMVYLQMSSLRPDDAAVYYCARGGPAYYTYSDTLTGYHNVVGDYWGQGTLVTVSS VL: ELTQSPGTLSLSPGERATLSCRTSQSVSSTYLAWYQQKPGQPPRLLIYGASNRAPGIPDRFSGSGSGTDFTLTISRLEPEDFAVYYCQQYGDSPPITFGQGTRLDIKR
-0.04

Now let's try a different one.
// fetch OD 450 nm given entry Fab V1 (Fab, V domains shown) VH: VQLLEQSGAEVQKPGASVKVSCKPSGYIFTNFGISWVRQAPGQGLEWMAWINTYNGKTTYAQSLQGRVTLTTDPYTNTVFMELRSLRSDDTAVYYCARENEGEYVWGHFRSDYWGQGTLVTVSS VL: ELTQSPSSLSASVGDRVTITCQASQDISNFLNWYQRRPGKAPNLLIYDATHLETGVPSRFSGSGFGTHFTLTINSLQPEDIGTYYCQHFDDVPSFTFGPGTKVDLKR
0.3

Origin of the recorded values: patent US20110311550A1
